settings: in n-propanol, 286.15 K
test-readout: solubility (mole fraction)
Give bare numbers.

Exercise: Name the reported solubility (mole fraction) value associated with the compound Cc1nc(CCl)nc2ccccc12
Solution: 0.145

----------
conditions: in ethyl acetate, 296.15 K
test-readout: solubility (mole fraction)
One number for each entry.

Exercise: I have this molecule here, Cc1nc(CCl)nc2ccccc12 , and I need its recorded solubility (mole fraction).
Solution: 0.217

----------
conditions: in ethanol, 326.15 K
test-readout: solubility (mole fraction)

Exercise: Item Cc1nc(CCl)nc2ccccc12 has what recorded solubility (mole fraction)?
Solution: 0.337

----------
conditions: in acetone, 321.15 K
test-readout: solubility (mole fraction)
One number for each entry.

Exercise: Return reported solubility (mole fraction); argument: Cc1nc(CCl)nc2ccccc12
Solution: 0.603
